src = PubChem BioAssay

tested on: Lefty1; assay: Lefty1 binders on small-molecule microarrays, primary screen, biochemical, small-molecule microarray, 635/667 nm fluorescence (AID 1139); settings: small-molecule microarray binding, fluorescence 635/667; higher = more signal
Outcome: condition met for composite z-score of at least 0.5; condition not met for anything lower.

Solved entries (count: 4):
compound=CC(C)CNC(=O)[C@@H]1c2ccccc2C(=O)N(Cc2cc(C(F)(F)F)cc(C(F)(F)F)c2)[C@H]1c1ccc(CO)cc1 group_label="condition not met"
compound=CCOC(=O)[C@H]1C/C=C/C[C@H](C(=O)OCC)C(=O)O[C@H]2[C@@H](OC)O[C@H](CO)[C@@H](OC(=O)Nc3ccc4c(c3)OCO4)[C@@H]2OC1=O group_label="condition not met"
compound=Cc1ccc(F)cc1S(=O)(=O)N[C@@H]1CCN(Cc2ccc(-c3ccccc3)cc2)C1 group_label="condition not met"
compound=[N-]=[N+]=NCc1ccccc1[C@@H]1OC(c2ccc(OCCCO)cc2)=N[C@]1(Cc1ccccc1N=[N+]=[N-])C(=O)NCc1ccccc1 group_label="condition met"

Kindly review the next compound as well.
composite z-score >= 0.5 for CC(C)C(O)C1C=CC2C(=O)N(c3ccccc3)C(=O)C2N1Nc1ccc(C#N)cc1 (stereo unspecified) ?
condition not met
